biological target: Env of HIV-1 strain PVO.4 (HIV-1); test: cell-based or functional assay
The binders listed here are annotated with their neutralization IC50.
measured metric: neutralization IC50 (mg/L)

binder	measured metric	reading unit	comparison sign	assay result
γ22κ5 (antibody, V domains shown) VH: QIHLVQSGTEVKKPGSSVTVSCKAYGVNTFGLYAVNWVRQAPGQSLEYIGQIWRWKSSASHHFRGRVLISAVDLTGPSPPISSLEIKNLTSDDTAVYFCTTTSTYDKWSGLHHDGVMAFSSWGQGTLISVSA VL: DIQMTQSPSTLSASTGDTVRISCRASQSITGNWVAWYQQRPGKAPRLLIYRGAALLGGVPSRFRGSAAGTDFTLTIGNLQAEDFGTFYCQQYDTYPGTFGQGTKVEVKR	neutralization IC50	mg/L	=	0.352
γ15κ18 (antibody, V domains shown) VH: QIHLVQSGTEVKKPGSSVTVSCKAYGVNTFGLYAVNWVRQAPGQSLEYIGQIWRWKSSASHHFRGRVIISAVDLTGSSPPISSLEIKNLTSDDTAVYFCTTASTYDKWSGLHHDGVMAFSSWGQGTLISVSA VL: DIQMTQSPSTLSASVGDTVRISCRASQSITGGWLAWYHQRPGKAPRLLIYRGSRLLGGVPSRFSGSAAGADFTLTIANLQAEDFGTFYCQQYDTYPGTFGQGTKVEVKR	neutralization IC50	mg/L	=	1.59
γ20κ18 (antibody, V domains shown) VH: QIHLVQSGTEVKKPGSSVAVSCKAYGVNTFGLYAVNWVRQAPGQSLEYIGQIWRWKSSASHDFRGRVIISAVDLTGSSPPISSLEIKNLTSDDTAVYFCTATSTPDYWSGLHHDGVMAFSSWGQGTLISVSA VL: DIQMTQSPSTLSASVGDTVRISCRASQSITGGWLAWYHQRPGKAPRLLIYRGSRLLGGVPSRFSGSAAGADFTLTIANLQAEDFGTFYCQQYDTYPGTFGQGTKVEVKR	neutralization IC50	mg/L	>	15
γ46κ61 (antibody, V domains shown) VH: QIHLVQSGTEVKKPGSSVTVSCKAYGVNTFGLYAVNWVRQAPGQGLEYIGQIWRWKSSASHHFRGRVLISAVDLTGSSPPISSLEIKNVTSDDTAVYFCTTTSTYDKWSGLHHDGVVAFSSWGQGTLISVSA VL: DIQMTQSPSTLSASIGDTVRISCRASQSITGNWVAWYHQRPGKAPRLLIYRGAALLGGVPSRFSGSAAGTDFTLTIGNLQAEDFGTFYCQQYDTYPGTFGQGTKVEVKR	neutralization IC50	mg/L	=	0.244

Values were extracted from patent US20180171001A1.
